Test: Binding affinity to Mycobacterium tuberculosis FtsZ assessed as fluorescence intensity at emission maximum 427.9 nm
VALUE_KIND: Kd

> print(dat)
                                smiles.code   result
1  CCCCOC(=O)Nc1cc2nc(C3CCCCC3)[nH]c2cc1Oc1ccc(F)cc1  1320 nM

---

Reported MIC values follow for various compounds
Test system: Mycobacterium tuberculosis
Assay: Antimycobacterial activity against Mycobacterium tuberculosis H37Rv assessed as growth inhibition after 7 days incubation by Alamar Blue staining-based broth microdilution assay
Assay type: functional
Settings: 168 h
VALUE_KIND: MIC

> print(dat)
                                 smiles.code      result
 1  CCCCSc1cc2[nH]c(C3CCCCC3)nc2cc1NC(=O)c1ccc(F)cc1F  1.25 µg/mL
 2  CCCCOC(=O)Nc1cc2nc(C3CCCCC3)[nH]c2cc1Oc1ccc(F)cc1  0.63 µg/mL
 3  O=C(Nc1cc2nc(C3CCCCC3)[nH]c2cc1Oc1ccc(F)cc1)c1ccc(F)cc1F  12.5 µg/mL
 4  CCCCSc1cc2[nH]c(C3CCCCC3)nc2cc1NC(=O)OCCC  1.25 µg/mL
 5  CCCCOC(=O)Nc1cc2nc(C3CCCCC3)[nH]c2cc1N1CCCC1  0.39 µg/mL
 6  CCCCOC(=O)Nc1cc2nc(C3CCCCC3)[nH]c2cc1N(CC)CC  0.78 µg/mL
 7  Cc1ccc(C(=O)Nc2cc3nc(C4CCCCC4)[nH]c3cc2Sc2ccccc2)cc1  6.25 µg/mL
 8  CC(C)(C)c1ccc(C(=O)Nc2cc3nc(C4CCCCC4)[nH]c3cc2SCc2ccccc2)cc1  12.5 µg/mL
 9  Cc1ccc(C(=O)Nc2cc3nc(C4CCCCC4)[nH]c3cc2Oc2ccc(F)cc2)cc1  1.56 µg/mL
10  CCN(CC)c1cc2[nH]c(C3CCCCC3)nc2cc1NC(=O)c1ccc(OC)cc1   3.1 µg/mL
11  C=CCCC(=O)Nc1cc2nc(C3CCCCC3)[nH]c2cc1Oc1ccc(F)cc1  12.5 µg/mL
12  COc1ccc(C(=O)Nc2cc3nc(C4CCCCC4)[nH]c3cc2Oc2ccc(F)cc2)cc1  3.13 µg/mL
